Where these numbers come from: patent US9145405B2

Tested on: Vero cells
measurementDescription: Toxicity (half toxic concentration) in the anti-Cox_B3 test on Vero cells
Assay type: cell-based
readoutKind: TC50 (half of the toxic concentration) (µg/mL)

1. CCON=Cc1ccc(OCCOc2c(C)cc(-c3noc(C(F)(F)F)n3)cc2C)cn1
34.35
2. COC(=O)c1cc(OCCCOc2c(C)cc(-c3noc(C(F)(F)F)n3)cc2C)no1
36.48
3. Cc1cc(-c2noc(C(F)(F)F)n2)cc(C)c1OCCOC(C)(C)C
38.28
4. Cc1cc(-c2nc(C(F)(F)F)no2)cc(C)c1OCCOc1noc(C(F)(F)F)n1
40.78

====

Test system: Vero cells
measurementDescription: Toxicity (half toxic concentration) in the anti-Cox_B3 test on Vero cells
Assay type: cell-based
cond: Vero cells; Cox_B3
readoutKind: TC50 (half of the toxic concentration) (µg/mL)

1) Cc1cc(-c2noc(C(F)(F)F)n2)cc(C)c1OCCCOC1CCC(C)C(C)C1 (centres unmarked)
35.46
2) Cc1cc(-c2noc(C(F)(F)F)n2)cc(C)c1OCCOc1ncc(-c2noc(C(F)(F)F)n2)cc1F
39.21
3) Cc1cc(-c2noc(C(F)(F)F)n2)cc(C)c1OCCOc1cc(C(=O)O)nn1C
44.39
4) Cc1ccc(OCCOc2c(C)cc(-c3noc(C(F)(F)F)n3)cc2C)c(F)c1
44.28
5) Cc1cc(-c2noc(C(F)(F)F)n2)cc(C)c1OCCOc1cc(C(F)(F)F)no1
40.12
6) Cc1cc(-c2noc(C(F)(F)F)n2)cc(C)c1OCCCOc1cnc(C#N)cn1
36.87
7) Cc1cc(OCCOc2c(C)cc(-c3noc(C)n3)cc2C)no1
58.78
8) Cc1cc(-c2noc(C(F)(F)F)n2)cc(C)c1OCCSc1nnc(C)n1C
39.25
9) COc1ccc(OCCOc2c(C)cc(-c3noc(C(F)(F)F)n3)cc2C)c(F)c1
45.39
10) Cc1c[nH]c(OCCOc2c(C)cc(-c3noc(C(F)(F)F)n3)cc2C)n1
40.27
11) Cc1cc(-c2noc(C(F)(F)F)n2)cc(C)c1OCCOc1nnc(C(F)(F)F)s1
34.39
12) Cc1cc(-c2noc(C(F)(F)F)n2)cc(C)c1OCCOc1nccc(C(F)(F)F)n1
35.28
13) Cc1nnc(SCCOc2c(C)cc(-c3noc(C(F)(F)F)n3)cc2C)[nH]1
40.21
14) Cc1cc(-c2noc(C(F)(F)F)n2)cc(C)c1OCCOc1cc(C(F)(F)F)on1
36.68
15) Cc1nc(-c2ccc(OCCCOc3c(C)cc(-c4noc(C(F)(F)F)n4)cc3C)cc2)no1
33.28
16) Cc1cc(-c2noc(C(F)(F)F)n2)cc(C)c1OCCOc1ccc(-c2noc(C(F)(F)F)n2)cc1
34.98
17) Cc1nc(-c2ccc(OCCCOc3c(C)cc(-c4noc(C(F)(F)F)n4)cc3C)nc2)no1
36.28

====

System: Vero cells
measurementDescription: Toxicity (half toxic concentration) in the anti-Cox_B3 test on Vero cells
Type: cell-based
cond: Vero cells; Cox_B3
readoutKind: TC50 (half of the toxic concentration) (µg/mL)

1) Cc1csc(OCCOc2c(C)cc(-c3noc(C(F)(F)F)n3)cc2C)n1 [Compound 13]
38.68
2) Cc1nnc(OCCOc2c(C)cc(-c3noc(C(F)(F)F)n3)cc2C)o1 [Compound 28]
32.36
3) Cc1cc(-c2noc(C(F)(F)F)n2)cc(C)c1OCCOC(C)(C)C [Compound 36]
40.12
4) Cc1cc(OCCOc2c(C)cc(-c3noc(C(F)(F)F)n3)cc2C)[nH]n1 [Compound 15]
42.38
5) Cc1cc(-c2noc(C(F)(F)F)n2)cc(C)c1OCCCOc1ncc(C#N)cn1 [Compound 132]
39.23
6) Cc1cc(-c2noc(C(F)(F)F)n2)cc(C)c1OCCOc1ccc([N+](=O)[O-])cc1F [Compound 41]
46.89
7) Cc1cc(-c2noc(C(F)(F)F)n2)cc(C)c1OCCCOc1ncc(-c2noc(C(F)(F)F)n2)cn1 [Compound 136]
41.23
8) Cc1cc(-c2noc(C(F)(F)F)n2)cc(C)c1OCCCOc1ccc(-c2noc(C(F)(F)F)n2)nn1 [Compound 137]
41.65
9) Cc1cc(-c2noc(C(F)(F)F)n2)cc(C)c1OCCCOc1ccc([N+](=O)[O-])cn1 [Compound 134]
40.25
10) Cc1cc(-c2noc(C(F)(F)F)n2)cc(C)c1OCCOc1ncc(C(=O)O)c(O)n1 [Compound 32]
40.28

====

Test system: Vero cells
measurementDescription: Toxicity (half toxic concentration) in the anti-Cox_B3 test on Vero cells
Format: cell-based
cond: Vero cells; Cox_B3
readoutKind: TC50 (half of the toxic concentration) (µg/mL)

1. Cc1nc(-c2cnc(OCCCOc3c(C)cc(-c4noc(C(F)(F)F)n4)cc3C)c(F)c2)no1
36.17
2. Cc1cc(OCCCOc2c(C)cc(-c3noc(C(F)(F)F)n3)cc2C)on1
52.38
3. Cc1cc(-c2noc(C(F)(F)F)n2)cc(C)c1OCCOc1ccc(Cl)cc1Cl
35.66
4. Cc1cc(-c2noc(C(F)(F)F)n2)cc(C)c1OCCCOc1cnc(-c2noc(C(F)(F)F)n2)cn1
42.18
5. Cc1cc(OCCOc2c(C)cc(-c3noc(C(F)(F)F)n3)cc2C)ns1
46.47
6. Cc1cc(-c2noc(C(F)(F)F)n2)cc(C)c1OCCCOc1ncc(-c2noc(C(F)(F)F)n2)cc1F
34.87
7. Cc1cc(-c2noc(C(F)(F)F)n2)cc(C)c1OCCCOc1ccc(-c2noc(C(F)(F)F)n2)cc1
37.21
8. Cc1cc(OCCOc2c(C)cc(-c3noc(C(F)(F)F)n3)cc2C)no1
50.67
9. Cc1cc(-c2noc(C(F)(F)F)n2)cc(C)c1OCCOc1cc(C(F)(F)F)nn1C
41.38
10. Cc1cc(OCCCOc2c(C)cc(-c3noc(C(F)(F)F)n3)cc2C)ns1
45.87
11. Cc1nnc(OCCOc2c(C)cc(-c3noc(C(F)(F)F)n3)cc2C)[nH]1
42.23
12. Cc1cc(-c2noc(C(F)(F)F)n2)cc(C)c1OCCSc1nccc(C(F)(F)F)n1
33.28
13. Cc1cc(CCCOc2c(C)cc(-c3noc(C(F)(F)F)n3)cc2C)on1 [Pleconaril, reference compound]
17.25
14. Cc1cc(-c2noc(C(F)(F)F)n2)cc(C)c1OCCSc1nnc(C(F)(F)F)[nH]1
38.35
15. Cc1nc(-c2cnc(OCCOc3c(C)cc(-c4noc(C(F)(F)F)n4)cc3C)c(F)c2)no1
37.55
16. Cc1cc(-c2noc(C(F)(F)F)n2)cc(C)c1OCCOc1ccc(-c2noc(C(F)(F)F)n2)cn1
36.32

====

Test system: Vero cells
measurementDescription: Toxicity (half toxic concentration) in the anti-Cox_B3 test on Vero cells
Type: cell-based
readoutKind: TC50 (half of the toxic concentration)

1. Cc1cc(-c2noc(C(F)(F)F)n2)cc(C)c1OCCOc1ccc(-c2noc(C(F)(F)F)n2)cc1F [Compound 123]
35.88 µg/mL
2. COC(=O)c1cc(OCCOc2c(C)cc(-c3noc(C(F)(F)F)n3)cc2C)no1 [Compound 4]
35.58 µg/mL
3. Cc1cc(-c2noc(C(F)(F)F)n2)cc(C)c1OCCCOc1ccc(-c2noc(C(F)(F)F)n2)cc1F [Compound 124]
32.58 µg/mL
4. COC(=O)c1cnc(OCCOc2c(C)cc(-c3noc(C)n3)cc2C)c(F)c1 [Compound 103]
39.55 µg/mL
5. COC(=O)c1cnc(OCCOc2c(C)cc(-c3noc(C(F)(F)F)n3)cc2C)c(F)c1 [Compound 49]
35.36 µg/mL

====

System: Vero cells
measurementDescription: Toxicity (half toxic concentration) in the anti-Cox_B3 test on Vero cells
Type: cell-based
cond: Vero cells; Cox_B3
readoutKind: TC50 (half of the toxic concentration) (µg/mL)

1. Cc1cc(-c2noc(C(F)(F)F)n2)cc(C)c1OCCOc1c(Cl)cccc1Cl [Compound 42]
36.89
2. Cc1cc(-c2noc(C(F)(F)F)n2)cc(C)c1OCCCOc1ccc(C#N)nn1 [Compound 133]
38.78
3. Cc1nc(-c2ccc(OCCOc3c(C)cc(-c4noc(C(F)(F)F)n4)cc3C)cc2)no1 [Compound 111]
38.21
4. Cc1nc(-c2ccc(OCCOc3c(C)cc(-c4noc(C(F)(F)F)n4)cc3C)nc2)no1 [Compound 113]
35.22
